Molecular target: Serine protease 1 (Homo sapiens, UniProt P07477)
Sequence (P07477 whole entry): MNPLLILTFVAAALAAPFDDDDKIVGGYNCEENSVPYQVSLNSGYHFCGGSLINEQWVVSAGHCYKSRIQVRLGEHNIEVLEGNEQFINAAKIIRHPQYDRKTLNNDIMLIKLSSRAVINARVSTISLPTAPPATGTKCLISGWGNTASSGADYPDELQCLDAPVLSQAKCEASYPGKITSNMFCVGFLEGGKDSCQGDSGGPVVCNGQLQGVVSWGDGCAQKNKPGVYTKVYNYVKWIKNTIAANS
metric name: Ki (µM)
Only the number, expressed in µM, is required.

Fill in: Ki of CCCc1c(-c2csc(-c3cc(C(=N)N)sc3SC)n2)cnn1-c1ccccn1 is ___
0.18

====

Target: Complement C1s subcomponent (Homo sapiens)
Listed here: items and their measured pKi.
Reminder that pKi means the negative base-10 logarithm of the concentration expressed in mol/L.

These recorded examples may help you get a feel for the data.
COc1sc(C(=N)N)cc1-c1nc(-c2ccccc2)cs1	4.84
CSc1sc(C(=N)N)cc1-c1nc(-c2ccc(Cl)cc2)cs1	6.36

Requested read-out: pKi. Entry: CSc1sc(C(=N)N)cc1-c1nc(-c2ccc3ccccc3c2)cs1
6.31

How about this compound: CSc1sc(C(=N)N)cc1-c1nc(-c2cccc(C)c2)cs1
6.02

====

Assay: In vitro binding affinity towards human Complement C1r subcomponent
pKi: −log10 of the molar value.
metric name: pKi

Which pKi is reported for this compound? CCCc1c(-c2csc(-c3cc(C(=N)N)sc3SC)n2)cnn1-c1ccccn1
< 4.30

====

Target protein (sequence): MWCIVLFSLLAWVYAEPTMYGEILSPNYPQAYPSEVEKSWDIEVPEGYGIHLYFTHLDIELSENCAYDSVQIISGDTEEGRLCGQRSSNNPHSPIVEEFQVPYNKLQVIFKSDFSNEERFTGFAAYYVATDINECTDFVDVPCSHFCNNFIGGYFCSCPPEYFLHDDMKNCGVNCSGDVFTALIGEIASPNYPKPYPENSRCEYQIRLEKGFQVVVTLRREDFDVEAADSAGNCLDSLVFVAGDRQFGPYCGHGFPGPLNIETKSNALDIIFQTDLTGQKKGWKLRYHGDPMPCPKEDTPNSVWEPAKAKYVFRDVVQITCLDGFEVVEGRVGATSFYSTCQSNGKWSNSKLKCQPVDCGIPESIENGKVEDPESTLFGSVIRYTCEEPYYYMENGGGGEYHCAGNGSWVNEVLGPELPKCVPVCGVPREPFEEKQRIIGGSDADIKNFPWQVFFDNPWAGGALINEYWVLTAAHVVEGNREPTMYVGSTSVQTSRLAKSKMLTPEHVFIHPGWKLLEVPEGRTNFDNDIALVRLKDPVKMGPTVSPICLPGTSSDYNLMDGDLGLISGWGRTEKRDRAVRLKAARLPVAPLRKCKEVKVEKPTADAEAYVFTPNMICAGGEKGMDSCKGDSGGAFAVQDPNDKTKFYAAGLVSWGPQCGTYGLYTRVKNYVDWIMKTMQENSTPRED
Threshold 600 nM. Ki below it: 1.0. Ki at it or above: 0.0.

CSc1sc(C(=N)N)cc1-c1nc(-c2cnn(C)c2)cs1	1.0

Threshold test, Ki < 600 nM: CCCc1c(-c2csc(-c3cc(C(=N)N)sc3SC)n2)cnn1-c1ccccc1
1.0

And for CSc1sc(C(=N)N)cc1-c1nc(C2CCCCC2)cs1 ?
0.0

Please do the same for CSc1sc(C(=N)N)cc1-c1ncc(-c2ccccc2)s1 as well.
0.0

====

Target: Complement C1s subcomponent (Homo sapiens)
Sequence (P09871 whole entry): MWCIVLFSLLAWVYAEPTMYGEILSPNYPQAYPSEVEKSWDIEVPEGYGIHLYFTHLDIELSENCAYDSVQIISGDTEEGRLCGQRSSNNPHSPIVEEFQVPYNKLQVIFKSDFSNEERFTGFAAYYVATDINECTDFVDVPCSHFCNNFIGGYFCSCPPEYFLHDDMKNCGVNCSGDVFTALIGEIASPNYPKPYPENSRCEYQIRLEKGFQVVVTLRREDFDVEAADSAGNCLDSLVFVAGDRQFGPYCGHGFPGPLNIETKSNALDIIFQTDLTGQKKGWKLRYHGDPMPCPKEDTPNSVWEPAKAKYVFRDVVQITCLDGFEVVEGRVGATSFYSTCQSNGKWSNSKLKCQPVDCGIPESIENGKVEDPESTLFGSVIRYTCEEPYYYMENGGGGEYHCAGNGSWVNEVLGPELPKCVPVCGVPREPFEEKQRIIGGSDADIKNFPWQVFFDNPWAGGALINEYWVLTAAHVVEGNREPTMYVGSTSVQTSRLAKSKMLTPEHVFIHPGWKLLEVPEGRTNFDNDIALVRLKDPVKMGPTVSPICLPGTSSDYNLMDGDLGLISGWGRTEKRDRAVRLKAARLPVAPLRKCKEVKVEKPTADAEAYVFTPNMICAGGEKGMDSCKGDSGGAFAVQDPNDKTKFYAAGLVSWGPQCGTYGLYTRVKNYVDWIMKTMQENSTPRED
Threshold 500 nM: Ki strictly smaller gives rule met, otherwise rule not met.

Find out if reported Ki for COc1ccc(-c2csc(-c3cc(C(=N)N)sc3SC)n2)c(OC)c1 is less than 500 nM
rule not met

====

Biological target: Complement C1s subcomponent (Homo sapiens, UniProt P09871)
Reported pKi by item:
// returns pKi (minus log10 of molar concentration), number only

Please review the following examples before continuing.
CSc1sc(C(=N)N)cc1-c1nc(-c2ccccc2C)cs1	6.07
CSc1sc(C(=N)N)cc1-c1nc(-c2cnccc2Cl)cs1	6.06
N=C(N)c1cc(-c2nc(-c3ccccc3)cs2)c(C(F)(F)F)s1	4.90
CSc1sc(C(=N)N)cc1-c1nc(-c2cnn(-c3ccccc3)c2)cs1	6.82
COc1cccc(-c2csc(-c3cc(C(=N)N)sc3SC)n2)c1	6.33

Please examine the following record next.
Form field: reported pKi of CCOc1c(-c2csc(-c3cc(C(=N)N)sc3SC)n2)cnn1-c1ccccc1
7.05

Recorded values, source ChEMBL document CHEMBL1149210.
